System: OVCAR-3
Test: NCI tumour cell line growth inhibition, 48 h
Activity calls are given as the source filed them. Cut-off read from the data, not from the text of the source: active = GI50 up to about 1.1 µM and inactive = higher.
This listing pairs molecules with measured GI50.

Query string: Give the measured GI50 of COC(=O)C1CC2(C)C=CC1N(C(=O)OCc1ccccc1)C2 (stereo not given) .
Result string: 55.8 µM (inactive)

Query string: Give the measured GI50 of CN1CC=C(c2cccn2C)CC1 .
Result string: > 100 µM (inactive)

Query string: Give the measured GI50 of Cc1cc(=O)c2c(O)cc3c(c2o1)CC=C(COC1OC(COC2OC(CO)C(O)C(O)C2O)C(O)C(O)C1O)CO3 (stereo not given) .
Result string: > 100 µM (inactive)

Query string: Give the measured GI50 of CC1(C)O[C@@H](CCl)C[C@@H](C#N)O1 .
Result string: > 100 µM (inactive)

Query string: Give the measured GI50 of CC(C)(C)C1=CC(=N/N=c2\scc(-c3ccccc3)n2-c2ccccc2)C=C(C(C)(C)C)C1=O .
Result string: > 100 µM (inactive)

###

This listing pairs compounds with measured GI50.
Test system: SK-MEL-28
Assay: NCI tumour cell line growth inhibition, 48 h
Activity calls are given as the source filed them. Rule as the data show it: active = GI50 up to about 1.1 µM and inactive = higher.

CC1(C)O[C@@H]2C[C@H]3[C@@H]4C[C@H](F)C5=CC(=O)C=C[C@]5(C)[C@@]4(F)[C@@H](O)C[C@]3(C)[C@]2(C(=O)CO)O1 [FLUOCINOLONE ACETONIDE]    > 100 µM (inactive)
CC(=O)OC1CN2CCC1CC2 (stereo not given)    > 100 µM (inactive)

Query string: Give the measured GI50 of COc1ccc(-c2c(N)n(-c3cc(OC)cc(OC)c3)c(=O)c3cc([N+](=O)[O-])ccc23)cc1 .
Result string: > 100 µM (inactive)

Query string: Give the measured GI50 of N#CC1=C(S)N(C2OC(CO)C(O)C(O)C2O)C(c2ccccc2)=CC1c1cccs1 (stereo not given) .
Result string: 21.1 µM (inactive)

Query string: Give the measured GI50 of CC(C)(C)C(=O)CC(=O)C(C)(C)C.CC(C)(C)C(=O)CC(=O)C(C)(C)C.[SiH4] .
Result string: 3.15 µM (inactive)

Query string: Give the measured GI50 of CC(=O)OC(C(=O)O)C(OC(C)=O)C(OC(C)=O)C(OC(C)=O)C(=O)O (stereo not given) .
Result string: > 100 µM (inactive)

Query string: Give the measured GI50 of O=CC1C(Cl)=Nc2nc3ccccc3n2C1c1ccccc1 (stereo not given) .
Result string: 14.3 µM (inactive)

Query string: Give the measured GI50 of CCNc1ccc2c(c1)Cc1ccccc1-2 .
Result string: > 100 µM (inactive)

Query string: Give the measured GI50 of c1ccc(C2SCc3nc4cc5ccccc5cc4n32)cc1 (stereo not given) .
Result string: > 100 µM (inactive)

Query string: Give the measured GI50 of COC(=O)c1onc(C2OC(C)(C)OC2C(O)COC(c2ccccc2)(c2ccccc2)c2ccccc2)c1C(=O)OC (stereo not given) .
Result string: > 100 µM (inactive)

###

System: RPMI-8226
Assay: NCI tumour cell line growth inhibition, 48 h
Active and inactive are the calls of the source. Cut-off read from the data, not from the text of the source: active = GI50 up to about 1.1 µM and inactive = higher.
Please answer using one outcome listed in active, inactive

# example entries with known answers
Cc1cnc2cc(Cl)ccc2c1SCC(=O)O    inactive
C/C(CC(=O)Nc1cccc(C)c1C)=N\NC(N)=S    inactive

Query string: Which outcome was assigned to N=C(N)C1CN(CCc2c[nH]cn2)C(=O)NC1=O (stereo not given) in this test?
Result string: inactive

Query string: Which outcome was assigned to COc1ccc(C[C@H]2COC(=O)[C@@H]2Cc2cc(OC)c(OC)c(OC)c2)cc1OC in this test?
Result string: inactive

Query string: Which outcome was assigned to CC(=O)OCC(OC(C)=O)C1C[C@H]2O[C@@H]3[C@H](C[C@H]2O1)O[C@@]1(C[C@@H]3C)C[C@H](C)[C@@H]2O[C@]3(C[C@@H]2O1)C[C@H]1O[C@H]2[C@H](C)[C@H]4OC(=O)C[C@H]5CC[C@@H]6OC7[C@H]8O[C@]9(CC[C@H]%10CC(=O)[C@H](CC[C@H]%11C[C@@H](C)C(=O)C(C[C@@H]4O[C@H]2C[C@H]1O3)O%11)O%10)CC8O[C@@H]7[C@@H](O9)[C@H]6O5 (stereo not given in full) in this test?
Result string: active

Query string: Which outcome was assigned to O=C1C(c2c(O)[nH]c3ccc(S(=O)(=O)O)cc23)=Nc2ccccc21 in this test?
Result string: inactive

Query string: Which outcome was assigned to CC(C)(C)NN=C1C(C)(C)C(=NNC(C)(C)C)C1(C)C in this test?
Result string: inactive

Query string: Which outcome was assigned to CSCCC(C(=O)O)N(C)C (stereo not given) in this test?
Result string: inactive

Query string: Which outcome was assigned to O=C(c1cc(=O)c2ccc(O)cc2o1)c1ccc(Cl)cc1Cl in this test?
Result string: inactive

Query string: Which outcome was assigned to NS(=O)(=O)c1cc2c(cc1Cl)NC(/C(=N/NC(=O)c1ccncc1)C1C(=O)NC(=O)NC1=O)=NS2(=O)=O in this test?
Result string: inactive

Query string: Which outcome was assigned to C=CCC1([C@H](C)[C@@H](OC(C)=O)c2cc(OC)c(OC)c(OC)c2)C[C@@H](OC)CCC1=O (stereo not given in full) in this test?
Result string: inactive

Query string: Which outcome was assigned to O=CC1C(Cl)=Nc2nc3ccccc3n2C1c1ccccc1 (stereo not given) in this test?
Result string: inactive

Query string: Which outcome was assigned to Nc1[nH]c(=S)[nH]c(=O)c1/N=N/c1c(Br)cc(S(N)(=O)=O)cc1Br in this test?
Result string: inactive

Query string: Which outcome was assigned to COc1ccc(OC)c(NC(=O)C(=O)Nn2c(S)nc3ccccc3c2=O)c1 in this test?
Result string: inactive

Query string: Which outcome was assigned to C(=N\NC1=NCCCN1)/c1ccc(-c2cn3cc(/C=N/NC4=NCCCN4)ccc3n2)cc1 in this test?
Result string: inactive

Query string: Which outcome was assigned to Cc1ccc(NC(=O)C2C(=O)N(c3ccc(C)c(C)c3)C(=O)/C2=N/O)cc1C (stereo not given) in this test?
Result string: inactive

###

This listing pairs compounds with measured GI50.
Test system: SK-OV-3
Experiment: NCI tumour cell line growth inhibition, 48 h
Active and inactive are the calls of the source. No stated cut-off is given here; in the data, active = GI50 up to about 1.1 µM and inactive = higher.

CC(=O)/C(=C\I)c1ccccc1    13.6 µM (inactive)

Query string: Give the measured GI50 of N/C(=N\N=C=C1C(=O)Nc2ccc(F)cc21)NO .
Result string: 59.2 µM (inactive)

Query string: Give the measured GI50 of COc1cc([C@@H]2c3cc4c(cc3[C@@H](NCCNCCO)[C@H]3COC(=O)[C@H]23)OCO4)cc(OC)c1O .
Result string: 2.33 µM (inactive)

Query string: Give the measured GI50 of COc1ccc(-c2cc(=O)c3c(OC)cccc3o2)c(OC)c1OC .
Result string: > 100 µM (inactive)

Query string: Give the measured GI50 of CCCCCC#CCOC(=O)C(=[N+]=[N-])P(=O)(c1ccccc1)c1ccccc1 .
Result string: > 10 µM (inactive)

###

System: SNB-75
Test: NCI tumour cell line growth inhibition, 48 h
Activity calls are given as the source filed them. Cut-off read from the data, not from the text of the source: active = GI50 up to about 1.1 µM and inactive = higher.
Please answer using one outcome listed in TRUE for active, FALSE for inactive

O=C1NC(c2cccc3ccccc23)Nc2ccc(Cl)cc21 (configuration not stated)    TRUE
CC(C)COP(=O)(OCC(C)C)C(NS(=O)(=O)c1ccccc1)(C(F)(F)F)C(F)(F)F    FALSE
Cc1ccc(N(C(=O)CC(=O)N2N=C(c3ccccc3)C(/N=N/c3ccc([N+](=O)[O-])cc3)C2=O)C(=O)c2ccc(Cl)cc2)cc1 (configuration not stated)    FALSE

Query string: Which outcome was assigned to CC(C)NC1CCCCC2c3cc(F)ccc3[C@]12O (some centres not stated) in this test?
Result string: FALSE

Query string: Which outcome was assigned to Cn1c(=O)c2c(nc3n2CCC(=O)N3CCCCl)n(C)c1=O in this test?
Result string: FALSE

Query string: Which outcome was assigned to O=c1[nH][nH]c(=O)n1Cc1ccccc1 in this test?
Result string: FALSE

Query string: Which outcome was assigned to O=C(O)c1cccc(S(=O)(=O)NN2C(=O)CSC2c2ccccc2)c1 (configuration not stated) in this test?
Result string: FALSE

###

Tested on: U-251
Assay: NCI tumour cell line growth inhibition, 48 h
The source made the active and inactive calls. No stated cut-off is given here; in the data, active = GI50 up to about 1.1 µM and inactive = higher.
Please answer using one outcome listed in y for active, n for inactive

# example entries with known answers
COc1cccc2c1C(=O)c1c(O)c3c(c(O)c1C2=O)C[C@@](O)(C(=O)CO)CC3OC1CC(O)C(O)C(C)O1 (stereo partly specified)    y
CC(C)NC1CCCCC2c3cc(F)ccc3[C@]12O (stereo partly specified)    n
CC#C[I+]c1ccccc1    n
NC1=NN(c2ccccc2)C2(O)c3ccncc3C3=NN(c4ccccc4)C(=O)C132 (stereo unspecified)    n

Query string: Which outcome was assigned to CCOC(=O)C(N)CSC(=O)NC (stereo unspecified) in this test?
Result string: n

Query string: Which outcome was assigned to COc1ccc(/C=C(\NC(=O)c2ccccc2)c2nc3ccccc3[nH]2)cc1 in this test?
Result string: n
